- SYSTEM: type IV phosphodiesterase
- EXPERIMENT SUMMARY: Type IV phosphodiesterase inhibiting activity
- ASSAY CONDITIONS: U937 type IV phosphodiesterase fraction, 0.28 μM cAMP, pH 7.5, 30° C., 30 minutes; read-out: PDEIV-IC50
pIC50: −log10 of the molar value. Counter-ions that a name gives are not always drawn.
EXPERIMENTAL READOUT: pIC50

Field: example entries. Status: answers known.
- COMPOUND: "O=C(NC1CCC1)c1cn([C@H]2CC[C@H](O)CC2)c2ncccc2c1=O [Example 164]"
  EXPERIMENTAL READOUT: "pIC50"
  RESULT VALUE: 6.40
- COMPOUND: "CCNC(=O)N1CC[C@H](n2cc(C(=O)Nc3c(Cl)cncc3Cl)c(=O)c3cccnc32)C1 [Example 18]"
  EXPERIMENTAL READOUT: "pIC50"
  RESULT VALUE: 8.33
- COMPOUND: "O=C(Nc1c(Cl)cncc1Cl)c1cn(N2CCOCC2)c2ncccc2c1=O [Example 107]"
  EXPERIMENTAL READOUT: "pIC50"
  RESULT VALUE: 9.40

1. O=C(O[C@H]1CC[C@H](n2cc(C(=O)Nc3c(Cl)cncc3Cl)c(=O)c3cccnc32)CC1)c1cccc(CN2CCOCC2)c1 [Example 162, hydrochloride]
2. CN(C)C(=O)[C@@H]1C[C@H](n2cc(C(=O)Nc3c(Cl)cncc3Cl)c(=O)c3cccnc32)CN1 [Example 93]
Just curious, which one has the larger pIC50 reading, 1 or 2 ? Choose, then provide that item's label.
1

I. COC(=O)N1CC[C@@H](n2cc(C(=O)Nc3c(Cl)cncc3Cl)c(=O)c3cccnc32)C1 [Example 17]
II. CN1CCC(n2cc(C(=O)Nc3c(Cl)cncc3Cl)c(=O)c3cccnc32)CC1 [Example 51]
III. O=C(Nc1cccnc1)c1cn([C@H]2CC[C@H](O)CC2)c2ncccc2c1=O [Example 172]
IV. COC(=O)N1CC(n2cc(C(=O)Nc3ccncc3)c(=O)c3cccnc32)C1 [Example 33]
V. CC(=O)O[C@H]1CC[C@@H](n2cc(C(=O)Nc3c(Cl)cncc3Cl)c(=O)c3cccnc32)CC1 [Example 118]
Arrange the 5 compounds by rising pIC50, starting with the smallest. Ranked list of labels, please, in the requested order.
IV, III, II, I, V

A. CC(=O)N[C@H]1CC[C@H](n2cc(C(=O)Nc3c(Cl)cncc3Cl)c(=O)c3cccnc32)CC1 [Example 70]
B. CNC(=S)N1CC[C@H](n2cc(C(=O)Nc3c(Cl)cncc3Cl)c(=O)c3cccnc32)C1 [Example 19]
C. COC(=O)N1CCC(n2cc(C(=O)Nc3c(Cl)cccc3Cl)c(=O)c3cccnc32)C1 (racemic) [Example 4]
D. O=C(Nc1c(Cl)cncc1Cl)c1cn(C2CCSCC2)c2ncccc2c1=O [Example 101]
E. O=C(Nc1c(Cl)cncc1Cl)c1cn([C@@H]2CC[C@@H](O)C2)c2ncccc2c1=O [Example 79]
Arrange the 5 compounds by rising pIC50, starting with the smallest. Ranked list of labels, please, in the requested order.
C, B, A, E, D
(C: 7.22, B: 8.20, A: 8.41, E: 8.92, D: 9.40)

====

- Tested on: TNF-α production by LPS stimulated macrophages
- EXPERIMENT SUMMARY: TNF-α production inhibitory activity by LPS stimulated macrophages
- Assay type: cell-based
- ASSAY CONDITIONS: Macrophage, BALB/c mouse peritoneal macrophages, cultured for 8 hours, ELISA
Where a name gives a salt, the structure may show the parent alone.
EXPERIMENTAL READOUT: IC50 (nM)

Field: example entries. Status: answers known.
- MOLECULE: "CC(=O)N1CCC(n2cc(C(=O)Nc3c(Cl)cncc3Cl)c(=O)c3cccnc32)CC1"
  SYSTEM: "TNF-α production by LPS stimulated macrophages"
  UNIT SPEC: "nM"
  RESULT VALUE: 100
- MOLECULE: "O=C(Nc1ccncc1)c1cn([C@H]2CCOC2)c2ncccc2c1=O"
  SYSTEM: "TNF-α production by LPS stimulated macrophages"
  UNIT SPEC: "nM"
  RESULT VALUE: 2500
- MOLECULE: "COC(=O)N1CCN(n2cc(C(=O)Nc3c(Cl)cncc3Cl)c(=O)c3cccnc32)CC1"
  SYSTEM: "TNF-α production by LPS stimulated macrophages"
  UNIT SPEC: "nM"
  RESULT VALUE: 15
- MOLECULE: "O=C(CN1CCC(n2cc(C(=O)Nc3c(Cl)cncc3Cl)c(=O)c3cccnc32)CC1)OCc1ccccc1"
  SYSTEM: "TNF-α production by LPS stimulated macrophages"
  UNIT SPEC: "nM"
  RESULT VALUE: 200

a. O=C(Nc1c(Cl)cncc1Cl)c1cn([C@H]2CCOC2)c2ncccc2c1=O
b. O=C(Nc1ccncc1)c1cn([C@H]2CC[C@H](O)CC2)c2ncccc2c1=O
Just curious, which one has the larger IC50 reading, a or b ? Choose, then provide that item's label.
b

A. CN1CCN(n2cc(C(=O)Nc3c(Cl)cncc3Cl)c(=O)c3cccnc32)CC1
B. O=C(Nc1c(Cl)cncc1Cl)c1cn(C2CCNCC2)c2ncccc2c1=O [Example 47, hydrochloride]
Of A and B , whose reported IC50 is numerically smaller? Choose, then provide that item's label.
A
(A: 10 nM, B: 800 nM)

P. O=C(O)CN1CCC(n2cc(C(=O)Nc3c(Cl)cncc3Cl)c(=O)c3cccnc32)CC1
Q. O=C(Nc1ccncc1Cl)c1cn([C@H]2CC[C@H](O)CC2)c2ncccc2c1=O
Of P and Q , whose reported IC50 is numerically smaller? Choose, then provide that item's label.
Q
(Q: 1200 nM, P: 7000 nM)

A. O=C(Nc1c(Cl)cncc1Cl)c1cn(C2CC[S+]([O-])CC2)c2ncccc2c1=O (stereo not shown) [Example 102 (Sulfoxide)]
B. O=C(Nc1c(Cl)cncc1Cl)c1cn(C2CC2)c2ncccc2c1=O
C. COC(=O)N1CC(n2cc(C(=O)Nc3ccncc3)c(=O)c3cccnc32)C1
Put the entries in order of IC50, starting with the largest number. Ranked list of labels, please, in the requested order.
C, A, B
